- PROTOCOL DESCRIPTION: Equilibrium solubility of TDL in oils, surfactants and cosurfactants
- Format: physicochemical
- CONDITION SET: 25 °C, oil or lipid, thermodynamic from solid; in Miglyol 829, 25 ± 1 °C, 72 h
REPORTED PROPERTY: solubility at 72 h (mg/mL)
Just the number in mg/mL, nothing appended.

IN: Name the recorded solubility at 72 h for `CN1CC(=O)N2[C@H](c3ccc4c(c3)OCO4)c3[nH]c4ccccc4c3C[C@@H]2C1=O` .
OUT: 0.91

---

- PROTOCOL DESCRIPTION: Equilibrium solubility of TDL in oils, surfactants and cosurfactants
- Type: physicochemical
- CONDITION SET: 25 °C, oil or lipid, thermodynamic from solid; in Miglyol 812N, 25 ± 1 °C, 72 h
REPORTED PROPERTY: solubility at 72 h (µg/mL)
Just the number in µg/mL, nothing appended.

IN: Name the recorded solubility at 72 h for `CN1CC(=O)N2[C@H](c3ccc4c(c3)OCO4)c3[nH]c4ccccc4c3C[C@@H]2C1=O` .
OUT: 330

---

- PROTOCOL DESCRIPTION: Equilibrium solubility of TDL in oils, surfactants and cosurfactants
- Assay type: physicochemical
- CONDITION SET: 25 °C, oil or lipid, thermodynamic from solid; in Miglyol 840, 25 ± 1 °C, 72 h
REPORTED PROPERTY: solubility at 72 h
Answer shape: numeric part, then the unit.

IN: Name the recorded solubility at 72 h for `CN1CC(=O)N2[C@H](c3ccc4c(c3)OCO4)c3[nH]c4ccccc4c3C[C@@H]2C1=O` .
OUT: 290 µg/mL

---

- PROTOCOL DESCRIPTION: Equilibrium solubility of TDL in oils, surfactants and cosurfactants
- Format: physicochemical
- CONDITION SET: 25 °C, thermodynamic from solid; in Span 80
REPORTED PROPERTY: solubility at 72 h (mg/mL)
Just the number in mg/mL, nothing appended.

IN: Name the recorded solubility at 72 h for CN1CC(=O)N2[C@H](c3ccc4c(c3)OCO4)c3[nH]c4ccccc4c3C[C@@H]2C1=O [Tadalafil] .
OUT: 0.17

---

- PROTOCOL DESCRIPTION: Equilibrium solubility of TDL in oils, surfactants and cosurfactants
- Type: physicochemical
- CONDITION SET: 25 °C, oil or lipid, thermodynamic from solid; in Oleic acid, 25 ± 1 °C, 72 h
REPORTED PROPERTY: solubility at 72 h (µg/mL)
Just the number in µg/mL, nothing appended.

IN: Name the recorded solubility at 72 h for CN1CC(=O)N2[C@H](c3ccc4c(c3)OCO4)c3[nH]c4ccccc4c3C[C@@H]2C1=O [Tadalafil] .
OUT: 190

---

- PROTOCOL DESCRIPTION: Equilibrium solubility of TDL in oils, surfactants and cosurfactants
- Assay type: physicochemical
- CONDITION SET: 25 °C, thermodynamic from solid; in Tween 80
REPORTED PROPERTY: solubility at 72 h (µg/mL)
Just the number in µg/mL, nothing appended.

IN: Name the recorded solubility at 72 h for `CN1CC(=O)N2[C@H](c3ccc4c(c3)OCO4)c3[nH]c4ccccc4c3C[C@@H]2C1=O` .
OUT: 280

---

- PROTOCOL DESCRIPTION: Equilibrium solubility of TDL in oils, surfactants and cosurfactants
- Type: physicochemical
- CONDITION SET: in Transcutol
REPORTED PROPERTY: solubility at 72 h

IN: Name the recorded solubility at 72 h for CN1CC(=O)N2[C@H](c3ccc4c(c3)OCO4)c3[nH]c4ccccc4c3C[C@@H]2C1=O [Tadalafil] .
OUT: ~33.4 mg/mL
